- tested.system: Glutamate receptor ionotropic, AMPA (Rattus norvegicus, UniProt P19490+P19491+P19492+P19493)
- test.method.notes: Binding affinity against Ionotropic glutamate receptor using [3H]-AMPA displacement from rat forebrain preparations
measure.name: pIC50
Lab note — pIC50 values are minus log10 of concentrations in M.

# smi, pIC50
rows = [
    ("N[C@@H](C[C@H](CCCc1ccccc1)C(=O)O)C(=O)O", 4.47),
]

Turning now to a further record.
Find the recorded pIC50 belonging to "N[C@@H](C[C@H](CCC(c1ccccc1)c1ccccc1)C(=O)O)C(=O)O" and report it.
4.84
